// provenance: patent US20200199207A1

- assay.target: T1, Peptide 9 (peanut)
- T1 construct: also called linear Ara h 2 peptide 9
- T1 peptide: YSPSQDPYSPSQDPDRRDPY
- experiment.description: competition ELISA, peptide in solution vs coated Ara h 2
readout.name: binding result

binder | obs.value
h12G10 (antibody, human IgG1, V domains shown, Recombinant human IgG; also called hMAb 12G10) VH: EVQLLESGGRLLRPGGSLSLSCVASGFYFGDFGMSWVRQVPGKGLEWVSGIDWSGRSTGYVDSMKGRLTISRDNDKSSLYLQMNDLRGEDTAVYYCARVGRLCSGDSCDSMGAFDLWGQGTMVTVSS VL: DIQLTQSPSTLSASIGDSVTITCRASQNIDNWLAWYQQKPGKAPRLLIYKASSLGSGVSSKFRGSGFGTEFTLTITSLQPDDFATYYCQKSNGYSRTFGQGTKVDIK | binds
h37D5 (antibody, V domains shown, Recombinant human IgG; also called hMAb 37D5) VH: EEQLVESGGRLLRPGESLSLSCAAVGFNFGDFGMAWVRQPPGKGLEWVAGINWSGHSTGFVDSMKGRLTISRDSAKSSLFLQMNSLRGEDTAVYYCARVGRLCSGDICDSMGAFDLWGQGTMVTVSS VL: DIQMTQSPSTLSASIGDRVTITCRASQTIDNWLAWYQQRPGKAPKLLIYQASSLQSGVSSRFRGSGSGTEFTLTITSLQPDDFATYYCQKSNGYSRTFGQGTKVEIK | binds
